# MEASURED ON: Muscarinic acetylcholine receptor
# PROCEDURE SUMMARY: Inhibition of 0.1 nM [3H]cis-methyldioxolane binding to rat neocortex muscarinic receptor
# Type: protein assay

{"COMPOUND": "CC(/C=N/O)CC#CCN1CCCC1 (configuration not stated)", "DISPLAY UNIT": "µM", "IC50": 0.021}
{"COMPOUND": "C[N+](C)(C)CC#CCOC(=O)Nc1cccc(Cl)c1.[Cl-]", "DISPLAY UNIT": "µM", "IC50": 0.064}
{"COMPOUND": "CC(=O)N(C)CC#CCN(C)C", "DISPLAY UNIT": "µM", "IC50": 0.0216}
{"COMPOUND": "C/C(CCC#CCN(C)C)=N\\O", "DISPLAY UNIT": "µM", "IC50": 0.139}
{"COMPOUND": "CC(/C=N/O)CC#CCN(C)C (configuration not stated)", "DISPLAY UNIT": "µM", "IC50": 0.03}
{"COMPOUND": "C/C(CCC#CCN1CCCC1)=N\\O", "DISPLAY UNIT": "µM", "IC50": 0.373}
{"COMPOUND": "CC(=O)C(C)CC#CCN1CCCC1 (configuration not stated)", "DISPLAY UNIT": "µM", "IC50": 0.059}
{"COMPOUND": "CC(=O)C(C)CC#CCN(C)C (configuration not stated)", "DISPLAY UNIT": "µM", "IC50": 0.101}
{"COMPOUND": "CC(=O)CCC#CCN(C)C", "DISPLAY UNIT": "µM", "IC50": 0.068}
{"COMPOUND": "CC(=O)CCC#CCN1CCCC1", "DISPLAY UNIT": "µM", "IC50": 0.214}
{"COMPOUND": "O=C1CCCN1CC#CCN1CCCC1", "DISPLAY UNIT": "µM", "IC50": 0.0015}
{"COMPOUND": "CC(=O)N(C)CC#CCN1CCCC1", "DISPLAY UNIT": "µM", "IC50": 0.0045}

====

# MEASURED ON: Muscarinic acetylcholine receptor
# PROCEDURE SUMMARY: Inhibition of 0.03 nM [3H]quinuclidinyl benzylate binding to rat neocortex muscarinic receptor
# Type: protein assay
The following molecules are shown together with reported IC50 values.
READOUT KIND: IC50 (µM)

{"MOLECULE": "CC(=O)C(C)CC#CCN1CCCC1 (configuration not stated)", "READOUT KIND": "IC50", "ASSAY VALUE": 5.696}
{"MOLECULE": "C/C(CCC#CCN1CCCC1)=N\\O", "READOUT KIND": "IC50", "ASSAY VALUE": 1.254}
{"MOLECULE": "CC(=O)N(C)CC#CCN(C)C", "READOUT KIND": "IC50", "ASSAY VALUE": 87.876}
{"MOLECULE": "C/C(CCC#CCN(C)C)=N\\O", "READOUT KIND": "IC50", "ASSAY VALUE": 36.769}
{"MOLECULE": "CC(=O)N(C)CC#CCN1CCCC1", "READOUT KIND": "IC50", "ASSAY VALUE": 2.447}
{"MOLECULE": "CC(=O)CCC#CCN1CCCC1", "READOUT KIND": "IC50", "ASSAY VALUE": 7.28}
{"MOLECULE": "C[N+](C)(C)CC#CCOC(=O)Nc1cccc(Cl)c1.[Cl-]", "READOUT KIND": "IC50", "ASSAY VALUE": 5.388}
{"MOLECULE": "CC(=O)CCC#CCN(C)C", "READOUT KIND": "IC50", "ASSAY VALUE": 65.6}
{"MOLECULE": "O=C1CCCN1CC#CCN1CCCC1 [OXOTREMORINE]", "READOUT KIND": "IC50", "ASSAY VALUE": 0.407}
{"MOLECULE": "CC(/C=N/O)CC#CCN(C)C (configuration not stated)", "READOUT KIND": "IC50", "ASSAY VALUE": 13.23}
{"MOLECULE": "CC(/C=N/O)CC#CCN1CCCC1 (configuration not stated)", "READOUT KIND": "IC50", "ASSAY VALUE": 1.928}
{"MOLECULE": "CC(=O)C(C)CC#CCN(C)C (configuration not stated)", "READOUT KIND": "IC50", "ASSAY VALUE": 55.4}

====

# MEASURED ON: Muscarinic acetylcholine receptor M2 (Rattus norvegicus)
# Sequence (P10980 whole entry): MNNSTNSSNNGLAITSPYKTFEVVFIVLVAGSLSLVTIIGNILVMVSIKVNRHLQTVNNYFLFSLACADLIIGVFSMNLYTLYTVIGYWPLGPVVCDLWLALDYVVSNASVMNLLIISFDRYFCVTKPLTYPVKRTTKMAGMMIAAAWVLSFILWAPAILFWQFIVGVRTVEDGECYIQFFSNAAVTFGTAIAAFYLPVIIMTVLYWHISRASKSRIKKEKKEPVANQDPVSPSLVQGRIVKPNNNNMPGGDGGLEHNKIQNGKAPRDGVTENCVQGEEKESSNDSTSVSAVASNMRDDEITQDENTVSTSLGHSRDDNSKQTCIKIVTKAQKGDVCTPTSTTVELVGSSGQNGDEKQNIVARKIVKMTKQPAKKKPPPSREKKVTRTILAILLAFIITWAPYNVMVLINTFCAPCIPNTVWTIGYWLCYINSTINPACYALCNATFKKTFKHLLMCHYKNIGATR
# PROCEDURE SUMMARY: Displacement of [3H]QNB from Muscarinic acetylcholine receptor M2 from rat heart homogenates
# Format: tissue-based

{"MOLECULE": "CC(=O)C(C)CC#CCN1CCCC1 (stereo unspecified)", "DISPLAY UNIT": "µM", "IC50": 6.5}
{"MOLECULE": "CC(=O)CCC#CCN(C)C", "DISPLAY UNIT": "µM", "IC50": 18.9}
{"MOLECULE": "CC(=O)N(C)CC#CCN1CCCC1", "DISPLAY UNIT": "µM", "IC50": 2.01}
{"MOLECULE": "CC(/C=N/O)CC#CCN1CCCC1 (stereo unspecified)", "DISPLAY UNIT": "µM", "IC50": 5.5}
{"MOLECULE": "C[N+](C)(C)CC#CCOC(=O)Nc1cccc(Cl)c1.[Cl-]", "DISPLAY UNIT": "µM", "IC50": 34.1}
{"MOLECULE": "CC(=O)N(C)CC#CCN(C)C", "DISPLAY UNIT": "µM", "IC50": 4.46}

====

# PROCEDURE SUMMARY: Selectivity ratio of M2/m1 receptors
READOUT KIND: Selectivity ratio

{"COMPOUND": "C[N+](C)(C)CC#CCOC(=O)Nc1cccc(Cl)c1.[Cl-]", "ASSAY VALUE": 4.7}
{"COMPOUND": "CC(=O)N(C)CC#CCN1CCCC1", "ASSAY VALUE": 0.9}
{"COMPOUND": "CC(=O)CCC#CCN(C)C", "ASSAY VALUE": 0.4}
{"COMPOUND": "O=C1CCCN1CC#CCN1CCCC1", "ASSAY VALUE": 2.4}
{"COMPOUND": "CC(=O)C(C)CC#CCN1CCCC1 (stereo not drawn)", "ASSAY VALUE": 2.3}
{"COMPOUND": "CC(=O)N(C)CC#CCN(C)C", "ASSAY VALUE": 0.2}
{"COMPOUND": "CC(/C=N/O)CC#CCN(C)C (stereo not drawn)", "ASSAY VALUE": 1.3}
{"COMPOUND": "CC(/C=N/O)CC#CCN1CCCC1 (stereo not drawn)", "ASSAY VALUE": 4.8}

====

The following molecules are shown together with reported inhibition values.
# MEASURED ON: Muscarinic acetylcholine receptor (Rattus norvegicus) (UniProt P08482+P08483+P08485+P08911+P10980)
# PROCEDURE SUMMARY: Percent inhibition towards muscarinic receptor in rat neocortex using 0.03 nM [3H]quinuclidinyl benzylate receptor binding assay (RQMB) was determined

{"MOLECULE": "C/C(=N\\O)C(C)CC#CCN(C)C (stereo not given)", "DISPLAY UNIT": "%", "inhibition": 9}
{"MOLECULE": "CO/N=C(\\C)CCC#CCN1CCCC1", "DISPLAY UNIT": "%", "inhibition": 17}
{"MOLECULE": "CO/N=C/C(C)CC#CCN(C)C (stereo not given)", "DISPLAY UNIT": "%", "inhibition": 4}
{"MOLECULE": "C/C(=N\\O)C(C)CC#CCN1CCCC1 (stereo not given)", "DISPLAY UNIT": "%", "inhibition": 15}
{"MOLECULE": "CC(C=O)CC#CCN(C)C (stereo not given)", "DISPLAY UNIT": "%", "inhibition": 0}
{"MOLECULE": "CO/N=C(\\C)CCC#CCN(C)C", "DISPLAY UNIT": "%", "inhibition": 1}
{"MOLECULE": "CO/N=C(\\C)C(C)CC#CCN1CCCC1 (stereo not given)", "DISPLAY UNIT": "%", "inhibition": 26}
{"MOLECULE": "CC(C=O)CC#CCN1CCCC1 (stereo not given)", "DISPLAY UNIT": "%", "inhibition": 9}
{"MOLECULE": "CO/N=C(\\C)C(C)CC#CCN(C)C (stereo not given)", "DISPLAY UNIT": "%", "inhibition": 3}
{"MOLECULE": "CO/N=C/C(C)CC#CCN1CCCC1 (stereo not given)", "DISPLAY UNIT": "%", "inhibition": 15}

Where these numbers come from: ChEMBL document CHEMBL1126443
